Tested on: Pseudomonas aeruginosa
Experiment: Microorganism assimilation
Settings: 14 days elapsed
Number of Living Cells values, listed per item
experimentalReadout: Number of Living Cells

* CC(C)COC(=O)CCCCC(=O)OCC(C)C [DIBA, diisobutyl adipate] | < 10^2
* CCOC(=O)c1ccccc1C(=O)OCC [Diethyl Phthalate, diethyl phthalate] | 5.2 × 10^5
* CCCCC(CC)COC(=O)CCCCC(=O)OCC(CC)CCCC (centres unmarked) [Di-2-ethylhexyl Adipate, di-2-ethylhexyl adipate] | 1.4 × 10^9
* CC(C)CCOC(=O)CCCCC(=O)OCCC(C)C (single isomer, unassigned) [DIAA, diisoamyl adipate] | < 10^2
* CC(C)OC(=O)CCCCC(=O)OC(C)C [Diisopropyl Adipate, diisopropyl adipate] | < 10^3
